In what follows, each item is paired with its Ki for D(3) dopamine receptor (Rattus norvegicus).
readout: Ki (nM)

(a) COc1ccc2c(c1)CC[C@@H]1CN(CCN3CCC(NC(=O)c4ccc5ccccc5c4)CC3)CCN21
(b) COc1ccc2c(c1)CC[C@H]1CN(CCCCNC(=O)c3ccc4ccccc4c3)CCN21
(c) COc1ccc2c(c1)CC[C@@H]1CN(CCCCNC(=O)c3ccc4ccccc4c3)CCN21
(d) O=C(NCCCCN1CCN2c3ccccc3CC[C@@H]2C1)c1ccc2ccccc2c1
(e) COc1ccc2c(c1)CC[C@H]1CN(CCN3CCC(NC(=O)c4ccc5ccccc5c4)CC3)CCN21
Task: Which order do these fall in by Ki? Give them lowest to highest. // format: requested-order list of labels
Result: d, c, b, a, e

(P) COc1cccc2c1CC[C@H]1CN(CCCCNC(=O)c3ccc4ccccc4c3)CCN21
(Q) COc1ccc2c(c1)N1CCN(CCCCNC(=O)c3ccc4ccccc4c3)C[C@@H]1CC2
Task: // compare: P vs Q , metric Ki, want the smaller // output: label of the selected item
Result: P
(P: 9.3 nM, Q: 96 nM)
